The origin of these recorded values is patent US20190106487A1.

Quick list: primary supernatant functional assay (% inh.), NF-kB luciferase reporter per entry.
Molecular target: T1, human IL-1RAcP on 293T/17-FR cells (human, UniProt Q9NPH3 21-570)
T1 sequence (looked up): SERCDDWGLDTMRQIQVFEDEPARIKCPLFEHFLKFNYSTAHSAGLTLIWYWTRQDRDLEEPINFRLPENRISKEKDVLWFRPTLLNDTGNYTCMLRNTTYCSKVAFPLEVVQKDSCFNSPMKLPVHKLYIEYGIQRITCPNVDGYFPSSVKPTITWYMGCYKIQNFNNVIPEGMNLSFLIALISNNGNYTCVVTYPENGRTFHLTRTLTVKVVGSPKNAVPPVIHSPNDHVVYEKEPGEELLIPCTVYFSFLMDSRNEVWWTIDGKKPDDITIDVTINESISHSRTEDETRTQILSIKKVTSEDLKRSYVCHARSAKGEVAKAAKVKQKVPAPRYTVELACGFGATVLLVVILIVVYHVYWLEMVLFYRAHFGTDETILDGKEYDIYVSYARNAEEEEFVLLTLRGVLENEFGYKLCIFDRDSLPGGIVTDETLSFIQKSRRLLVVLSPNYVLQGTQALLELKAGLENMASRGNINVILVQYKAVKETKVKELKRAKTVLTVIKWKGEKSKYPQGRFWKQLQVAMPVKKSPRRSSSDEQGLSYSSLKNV
Assay: cell-based or functional assay
Kindly provide the numeric value in % only, without the unit symbol.

For orientation, consider the following solved cases.
binder: P013.S.01.B.A03 (antibody, V domains shown, rabbit monoclonal antibody; also called P013.A.00088.A07) VH: QEQLEESGGDLVQPEGSLTVTCTASGFSFSFGYYMCWVRQAPGKGLEWIACIYGDSSDTLYANWAKGRFTVSKTSSTTVTLQMTSLTAADTATYFCARYPGGSYYNLWGPGTRVTVSS VL: ALVMTQTPASVEAAVGGTVTIKCQASQTISINLAWYQQKPGQRPKLLIYYASTLASGVPSRFSGSGSGTEFTLTISGVQSDDAATYYCQQGYTEDNIDNTFGGGTEVVVK
unitOfMeasure: %
observedResult: 95
--
binder: P013.S.02.B.A01 (antibody, V domains shown, rabbit monoclonal antibody; also called P013.A.00087.A07) VH: QSVEESGGRLVTPGTPLTLTCTVSGFSLSSYYMSWVRQAPGKGLEWIGYIYAAGPITYYATWAKGRFTISKTSTTVDLKITSPTTEDTATYFCVRDGSGSGTYGYNGMDLWGPGTLVTVSS VL: AYDMTQTPASVEAAVGGTVTIKCQASQSISNWLAWYQQKPGQRPKLLIYRASTLASGVSSRFKGSGSGTQFTLTISGVESADAATYYCQQGASTTDVDNVFGGGTEVVVK
unitOfMeasure: %
observedResult: 67
--
binder: P013.S.02.B.H04 (antibody, V domains shown, rabbit monoclonal antibody; also called P013.A.00029.F11) VH: QSVEESGGRLVKPDETLTLTCTVSGIDLSSYAMGWVRQAPGKGLEYIGIISSSGRTYYANWAKGRFTISKASSTTVDLKITSPTTEDTATYFCARLITVDYYIYDYFNLWGQGTLVTVSS VL: AYDMTQTPASVEAAVGGTVTIKCQASQSISSYLSWYQQKPGQPPKLLIYGASTLASGVPSRFKGSGSGTEYTLTISGVESDDAATYYCQQGYSYNNVDNTFGGGTEVVVK
unitOfMeasure: %
observedResult: 52
--
binder: P013.S.02.B.C01 (antibody, V domains shown, rabbit monoclonal antibody; also called P013.A.00109.C12) VH: QSVEESGGRLVTPGGSLTLTCTVSGFSLSVYAMGWFRQAPGKGLEWIGDIYTGSGSTWYASWAKGRFTISKTSTTVDLKITSPTTEDTATYFCAREIDAGYVGYGFNLWGQGTLVTVSS VL: AQALTQTPSSVSAAVGGTVTINCQSSQSVYSDYLVWYQQKPGQPPKLLIYQASKLASGVPSRFKGSGSGTQFTLTISGVQSDDAATYYCQATYSSTGWYRAFGGGTEVVVK
unitOfMeasure: %
observedResult: 88
--
binder: P013.S.02.B.D02 (antibody, V domains shown, rabbit monoclonal antibody; also called P013.A.00086.F05) VH: QSLEESGGDLVKPGASLKLSCTASGVSFSSAYWMCWVRQAPGKGLEWIACIYAGSSGSTYYASWAKGRFTISKTSSTTVTLQMTSLTAADTATYFCARHAAWFELDLWGPGTLVTVSS VL: ALVMTQTPSPVSAAVGGTVTINCQASQNIASAYLSWYQQKPGQPPKLLIYAASTLTDGVPSRFKGSGSVTEFTLTISGVQSDDAATYYCAGYKSYTDDEFAFGGGTEVVVK
unitOfMeasure: %
observedResult: 85
--
binder: P013.S.01.B.B05 (antibody, V domains shown, rabbit monoclonal antibody; also called P013.A.00030.D07) VH: QSLEESGGRLVTPGTPLTLTCTASGFSLSSYYMSWVRQAPGKGLEWVGIISGSASTYYATWAKGRFTISKTSTTVDLKIASPTTEDTATYFCARTHYAAVAGYGYASRLDLWGQGTLVTVSS VL: AIEMTQSPPSLSASVGETVRIRCLASEDIYSGISWYQQKPGKPPTLLIYAASNLESGVPPRFSGSGSGTDYTLTIGGVQAEDAATYYCLGGYSYSNTGPTFGAGTKVEIK
unitOfMeasure: %
observedResult: 85

Next up:
Requested read-out: primary supernatant functional assay (% inh.), NF-kB luciferase reporter. Entry: P013.S.01.B.G04 (antibody, V domains shown, rabbit monoclonal antibody; also called P013.A.00013.G06) VH: QSVEESGGRLVTPGTPLTLTCTVSGFSLSVYAMGWFRQAPGKGLEWIGDIYIASDGTWYANWAKGRFTISKTSTTVDLKITSPTTEDTATYFCAREIDAGYVGYGFNLWGQGTLVTVSS VL: AQALTQTPSPVSAAVGGTVTINCQSSQSVYSDYLGWYQQKPGQPPKLLIYWASKLETGVPSRFKGSGSGTQFTLTISGVQSDDAATYYCQATYYGSGWYRAFGGGTEVVVK
99
